Listed next: entries and their corresponding IL2RB Blocking.
- TESTED TARGET: T1, human IL-2 (human, UniProt P60568 21-153, biotin-labeled in the IL2RB blocking assay)
- T1 construct: also called biotin-labeled IL-2 (Acro Biosystems IL2-H82E4)
- T1 sequence (P60568 21-153 limits assumed): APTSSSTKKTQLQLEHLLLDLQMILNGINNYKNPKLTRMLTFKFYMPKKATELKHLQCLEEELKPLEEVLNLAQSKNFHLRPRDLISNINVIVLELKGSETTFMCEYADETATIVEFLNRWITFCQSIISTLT
- METHOD NOTES: HTRF IL-2:IL2RB
Please give the numeric answer without any surrounding text.

{"BINDER": "PD1-IL2-R02-B05 (scFv) QVQLVQSGAEVKKPGASVKVSCKASGYTFTNYYIHWVRQAPGQGLEWMGIINPRAGYTSYALKFQGRVTMTRDTSTSTVYMELSSLRSEDTAVYYCAGGWLDWGQGTLVTVSSASGGGGSGGGGSGGGGSHASDIQMTQSPSSLSASVGDRVTITCRASQSISSWLAWYQQKPGKAPKLLIYAASSLQSGVPSRFSGSGSGTDFTLTISSLQPEDFATYYCQQSFTMPITFGQGTRLEIK", "IL2RB Blocking": 1610}

# lookup: IL2RB Blocking of PD1-R07-A05 (scFv) scFv: QVQLVQSGAEVKKPGASVKVSCKASGYTFTTYYVHWVRQAPGQGLEWMGIINPSGGSTSYAQNFQGRVTMTRDTSTSTVYMELSSLRSEDTAVYYCASGWDVWGQGTTVTVSSASGGGGSGGGGSGGGGSHASEIVMTQSPATLSVSPGERATLSCRASQSVNTYLAWYQQKPGQAPRLLIYGASTRATGIPARFSGSGSGTEFTLTISSLQSEDFAVYYCQQYGSSPVTFGQGTRLEIK 1730

Now try PD1-IL2-R02-C02 (SEQ ID NO: 31) (scFv, V5-tagged in the assay) scFv: QVQLVQSGAEVKKPGVSVKVSCKASGYTFPRSYIHWVRQAPGQGLEWMGWINPHSGDTYYAQNFQGRVTMTRDTSTSTVYMELSSLRSEDTAVYYCARDTGLGYYYGSGDFDYWGQGTLVTVSSASGGGGSGGGGSGGGGSHASDIQMTQSPSSLSASVGDRVTITCRASQSISRYLNWYQQKPGKAPKLLIYTASSLQSGVPSRFSGSGSGTDFTLTISSLQPEDFATYYCQQANRFPLTFGPGTKVDIK . 1070
